tgt: Human immunodeficiency virus type 1 reverse transcriptase (Human immunodeficiency virus 1, UniProt Q72547)
assay-explanation: Inhibition of HIV1 RT mediated DNA-dependent plus-strand DNA polymerization after 5 mins by gel-based assay
measure: pIC50
Remember the convention: pIC50 equals -log10 of concentration in molar.

Bench note: what pIC50 did CCc1cc(NCc2nc3c(Cl)ccc(Cl)c3o2)c(O)nc1C [L-697661] show?
7.46

---

tgt: Human immunodeficiency virus type 1 reverse transcriptase (Human immunodeficiency virus 1)
assay-explanation: Inhibition of HIV1 RT mediated DNA-dependent DNA polymerization using chimeric substrate with RNA PPT primer extended at 3' end with upto 3 deoxyribonucleotides
measure: IC50 (nM)
Express your answer in nM, writing the number without its unit.

Bench note: what IC50 did CCc1cc(NCc2nc3c(Cl)ccc(Cl)c3o2)c(O)nc1C show?
270
